molecular target: T1, human Sortilin expressed on 293 / HEK293T cells (human, UniProt Q99523 78-830); assay: FACS, 293 cells;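 further: antibodies at 10 µg/ml bound to cells for 1 h on ice, detected with PE-labelled anti-human secondary antibody by flow cytometry, reported as mean fluorescence intensity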
T1 construct: full-length recombinant human Sortilin; also called hSort; SORT1
MFI reference
quantity.name: MFI

binder	quantity.name	recorded.measurement
S-76 (antibody, V domains shown, IgG) VH: QVQLQESGPGLVKPSQTLSLTCTVSGGSISSGGYYWSWIRQHPGKGLEWIGSIYYSGSTYYNPSLKSRVTISVDTSKNQFSLKLSSVTAADTAVYYCARGVGIQQQLVLGFDPWGQGTLVTVSS VL: DIQMTQSPSSLSASVGDRVTITCRASQSISSFLNWYQQKPGKAPKLLISAASSLQSGVPSRFSGSGSGTDFTLTISSLQPEDFATYYCQQSYREPITFGGGTKVEIK	MFI	9680
S-22 (antibody, V domains shown, IgG) VH: QVQLVQSGAEVKKPGSSVKVSCKASGGTFSSYAISWVRQAPGQGLEWMGGIIPIFGTASYAQKFQGRVTITADESTSTAYMELSSLRSEDTAVYYCARQGRKTGYYYYYGMDVWGQGTTVTVSS VL: DIQMTQSPSTLSASVGDRVTITCRASQSISSWLAWYQQKPGKAPKLLIYKASSLESGVPSRFSGSGSGTEFTLTISSLQPDDFATYYCQQADGHITFGGGTKVEIK	MFI	8940
S-21 (antibody, V domains shown, IgG) VH: QVQLVQSGAEVKKPGSSVKVSCKASGGTFSSYAISWVRQAPGQGLEWMGSIIPIFGTANYAQKFQGRVTITADESTSTAYMELSSLRSEDTAVYYCARERRYDGYYYYYGMDVWGQGTTVTVSS VL: DIQMTQSPSSLSASVGDRVTITCRASQSISSYLNWYQQKPGKAPKLLIYAASSLQSGVPSRFSGSGSGTDFTLTISSLQPEDFATYYCQQKASLPFTFGGGTKVEIK	MFI	9380
